Origin of values: patent EP1824486B1

Target: serotonin reuptake sites (Rattus norvegicus, UniProt P31652)
Sequence (P31652 whole entry): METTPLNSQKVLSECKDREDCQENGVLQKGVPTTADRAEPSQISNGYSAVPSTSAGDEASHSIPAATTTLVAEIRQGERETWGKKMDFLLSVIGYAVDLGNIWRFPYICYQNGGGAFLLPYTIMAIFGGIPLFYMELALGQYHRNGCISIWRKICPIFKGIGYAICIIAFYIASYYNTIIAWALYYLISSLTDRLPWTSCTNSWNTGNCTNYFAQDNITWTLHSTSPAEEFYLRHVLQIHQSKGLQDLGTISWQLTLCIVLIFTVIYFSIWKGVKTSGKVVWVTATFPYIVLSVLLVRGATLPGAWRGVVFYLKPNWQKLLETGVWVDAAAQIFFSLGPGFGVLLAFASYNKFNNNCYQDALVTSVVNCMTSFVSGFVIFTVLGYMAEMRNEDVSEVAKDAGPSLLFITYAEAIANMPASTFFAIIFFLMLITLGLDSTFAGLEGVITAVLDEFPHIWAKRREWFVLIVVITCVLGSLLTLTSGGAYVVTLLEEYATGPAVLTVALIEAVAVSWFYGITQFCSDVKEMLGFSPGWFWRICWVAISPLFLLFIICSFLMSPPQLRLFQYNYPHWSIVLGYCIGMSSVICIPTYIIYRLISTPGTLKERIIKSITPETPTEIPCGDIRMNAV
Assay: In vitro affinity for serotonin reuptake sites ([3H]-paroxetine binding assay, Habert et al.)
Settings: average values from three independent experiments; read-out: in vitro affinity 5-HT reuptake binding Ki
pKi: −log10 of the molar value.
Recorded measurements of pKi, one per entry

{"compound": "Fc1cccc2[nH]cc(CCCN3CCN(c4cccc5c4OCCO5)CC3)c12 [compound 5d]", "pKi": 9.40}
{"compound": "Clc1cccc2c(CCCN3CCN(c4cccc5c4OCCO5)CC3)c[nH]c12 [5l]", "pKi": 8.10}
{"compound": "c1cc2c(c(N3CCN(Cc4c[nH]c5ccccc45)CC3)c1)OCCO2 [compound 5a]", "pKi": 6.75}
